Overview of reported TNF-α neutralization assay IC50 (nM), L929 cells across a group of binders:
subject.of.test: Recombinant Human TNF-α/TNFSF1A (human, UniProt P01375 77-233)
Sequence (P01375 77-233 limits assumed): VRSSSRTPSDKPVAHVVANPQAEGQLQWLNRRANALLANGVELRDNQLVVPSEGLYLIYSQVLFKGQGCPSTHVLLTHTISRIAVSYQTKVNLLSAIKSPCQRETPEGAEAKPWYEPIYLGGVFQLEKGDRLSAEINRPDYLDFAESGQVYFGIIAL
assay.name: cell-based or functional assay
Hi! Could you send only the number? It should be in nM, unit omitted.

{"columns": ["binder", "unit.abbreviation", "observed.result"],
 "data": [
  ["AB261 (antibody, V domains shown, also called hMAK195VH.2b / hMAK195VL.1a) VH: EVQLVESGGGLVQPGGSLRLSCAASGFTLSDYGVNWVRQAPGKGLEWVSMIWGDGSTDYDSTLKSRFTISKDNSKNTLYLQMNSLRAEDTAVYYCAREWHHGPVAYWGQGTLVTVSS VL: DIQMTQSPSSLSASVGDRVTITCKASQAVSSAVAWYQQKPGKSPKLLIYWASTRHTGVPSRFSGSGSGTDFTLTISSLQPEDFATYYCQQHYSTPFTFGQGTKLEIK", "nM", 0.187]
]}

Entry AB251 (antibody, V domains shown, also called hMAK195VH.1b / hMAK195VL.2a) VH: EVQLQESGPGLVKPSETLSLTCTVSGFSLSDYGVNWIRQPPGKGLEWIGMIWGDGSTDYDSTLKSRVTISKDTSKNQFSLKLSSVTAADTAVYYCAREWHHGPVAYWGQGTLVTVSS VL: EIVMTQSPATLSLSPGERATLSCKASQAVSSAVAWYQQKPGQSPRLLIYWASTRHTGVPARFSGSGSGTDFTLTISSLQPEDFAVYYCQQHYSTPFTFGQGTKLEIK , TNF-α neutralization assay IC50 (nM), L929 cells reported as 0.35

Entry AB243 (antibody, V domains shown, also called hMAK195VH.1 / hMAK195VL.2a) VH: EVQLQESGPGLVKPSETLSLTCTVSGGSISDYGVNWIRQPPGKGLEWIGMIWGDGSTDYDSTLKSRVTISVDTSKNQFSLKLSSVTAADTAVYYCAREWHHGPVAYWGQGTLVTVSS VL: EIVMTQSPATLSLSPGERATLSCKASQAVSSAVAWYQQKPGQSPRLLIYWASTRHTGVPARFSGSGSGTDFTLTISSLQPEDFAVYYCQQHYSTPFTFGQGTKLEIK , TNF-α neutralization assay IC50 (nM), L929 cells reported as 50.7
